meta.source: PubChem BioAssay AID1745844

# Test system: rodent lifetime carcinogenesis bioassay, tumor incidence TD50
# experimental_details: carcinogenic potency in animals, long-term in vivo studies, CPDB compilation (AID 1745844)
# measurement_conditions: rat; strain Fischer 344; males; by gavage; site: subcutaneous tissue; lesion: fibrosarcoma + fibroma + neurofibroma + sarcoma, NOS; dosed 103 weeks; study length 104 weeks
property: TD50 (mg/kg/day)
Give bare numbers, in mg/kg/day.

TD50 reported for this compound `S=c1[nH]c2ccccc2s1` : 1730

---

# System: rodent lifetime carcinogenesis bioassay, tumor incidence TD50
# experimental_details: carcinogenic potency in animals, long-term in vivo studies, CPDB compilation (AID 1745844)
# measurement_conditions: mouse; strain B6C3F1; females; in feed; site: all sites + ovary; lesion: histiocytic sarcoma + lymphoma malignant, thymic origin + malignant lymphoma + sex-cord stromal tumor, benign, bilateral + sex-c; dosed 105 weeks; study length 105 weeks
property: TD50 (mg/kg/day)
Answers are plain numbers, in mg/kg/day.

Hey, rodent lifetime carcinogenesis bioassay, tumor incidence TD50 data for `O=C1OC(c2ccc(O)cc2)(c2ccc(O)cc2)c2ccccc21` : TD50 came out at 508

---

# Tested on: rodent lifetime carcinogenesis bioassay, tumor incidence TD50
# experimental_details: carcinogenic potency in animals, long-term in vivo studies, CPDB compilation (AID 1745844)
# measurement_conditions: mouse; strain CFLP; females; in feed; site: liver; lesion: hepatocellular carcinoma; dosed 92 weeks; study length 94 weeks
Activity calls are given as the source filed them. No rule for the calls is given here.
property: TD50

// TD50 (rodent lifetime carcinogenesis bioassay, tumor incidence TD50) for `S=C([S-])NCCNC(=S)[S-].[Zn+2]` = 12600 mg/kg/day (inactive)

---

# Test system: rodent lifetime carcinogenesis bioassay, tumor incidence TD50
# experimental_details: carcinogenic potency in animals, long-term in vivo studies, CPDB compilation (AID 1745844)
# measurement_conditions: mouse; strain B6C3F1; males; in feed; site: liver; lesion: hepatocellular adenoma; dosed 60 weeks; study length 72 weeks
property: TD50

# compound ClC1=C(Cl)C2(Cl)C3C(Cl)C(Cl)CC3C1(Cl)C2(Cl)Cl (stereo unspecified) ; its TD50 = 0.727 mg/kg/day

---

# Test system: rodent lifetime carcinogenesis bioassay, tumor incidence TD50
# experimental_details: carcinogenic potency in animals, long-term in vivo studies, CPDB compilation (AID 1745844)
# measurement_conditions: rat; strain Fischer 344; females; by gavage; site: mammary tissue, wider than the gland; lesion: carcinoma; dosed 30 weeks; study length 104 weeks
property: TD50

Note to self: TD50 recorded for `CCN(N=O)C(=O)NCC(C)=O` was 0.192 mg/kg/day

---

# Tested on: rodent lifetime carcinogenesis bioassay, tumor incidence TD50
# experimental_details: carcinogenic potency in animals, long-term in vivo studies, CPDB compilation (AID 1745844)
# measurement_conditions: rat; strain Fischer 344; males; in feed; site: subcutaneous tissue; lesion: fibroma; dosed 78 weeks; study length 109 weeks
property: TD50

Measured TD50 for this entry `Cc1ccc2c(c1[N+](=O)[O-])C(=O)c1ccccc1C2=O` on rodent lifetime carcinogenesis bioassay, tumor incidence TD50: 25.8 mg/kg/day

---

Field: TD50. Provide a value for each of the compounds that follow.
# Test system: rodent lifetime carcinogenesis bioassay, tumor incidence TD50
# experimental_details: carcinogenic potency in animals, long-term in vivo studies, CPDB compilation (AID 1745844)
# measurement_conditions: mouse; strain B6C3F1; males; in feed; site: any site (literature study); lesion: several types; types named in the paper; dosed 78 weeks; study length 91 weeks
The source made the active and inactive calls. The rule behind the calls is not given here.

A selection of reference data follows.
entry_smiles	TD50
O=C(Nc1ccc([N+](=O)[O-])cc1Cl)c1cc(Cl)ccc1O	175 mg/kg/day
Cc1ccc(Cl)cc1N	132 mg/kg/day
OC(c1ccc(Cl)cc1)(c1ccc(Cl)cc1)C(Cl)(Cl)Cl	59.2 mg/kg/day

Continue with the next compound.
`CN(C)c1ccc(Cc2ccc(N(C)C)cc2)cc1` yielded TD50 of 367 mg/kg/day (inactive)
